molecular target: T1, naked peptide IPNMADDYGS (human); assay: ELISA naked peptide; scFv 1 ug/mL; repII
T1 peptide: IPNMADDYGS
A collection of binders and their measured OD450
Measure name: OD450 (OD)

Binder: Comparative antibody 1 (Comp-1) scFv, SEQ ID NO: 10 from WO2023/037125 A1, His-tagged (scFv) scFv: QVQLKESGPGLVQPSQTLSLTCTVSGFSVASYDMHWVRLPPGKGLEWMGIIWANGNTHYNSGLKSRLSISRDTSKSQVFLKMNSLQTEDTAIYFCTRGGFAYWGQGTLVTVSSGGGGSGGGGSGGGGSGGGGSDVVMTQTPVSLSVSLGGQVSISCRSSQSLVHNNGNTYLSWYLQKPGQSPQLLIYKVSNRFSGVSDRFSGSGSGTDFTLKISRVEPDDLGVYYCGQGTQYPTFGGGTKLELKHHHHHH
Measure name: OD450
Experimental result: 0.01
//
Binder: CCR9_HUM2 scFv (humanized anti-CCR9 scFv, SEQ ID NO: 17 with C-terminal 6xHis tag) (scFv) scFv: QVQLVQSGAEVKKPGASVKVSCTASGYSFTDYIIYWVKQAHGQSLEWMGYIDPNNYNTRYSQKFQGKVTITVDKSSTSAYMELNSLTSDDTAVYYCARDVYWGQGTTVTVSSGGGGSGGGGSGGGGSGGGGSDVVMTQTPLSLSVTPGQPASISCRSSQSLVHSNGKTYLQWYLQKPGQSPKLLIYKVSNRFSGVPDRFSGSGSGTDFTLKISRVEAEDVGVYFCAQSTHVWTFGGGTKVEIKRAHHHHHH
Measure name: OD450
Experimental result: 0.02
//
Binder: Comparative antibody 3 (Comp-3) scFv, SR_92R (Somovilla-Crespo et al. 2018), His-tagged (scFv) scFv: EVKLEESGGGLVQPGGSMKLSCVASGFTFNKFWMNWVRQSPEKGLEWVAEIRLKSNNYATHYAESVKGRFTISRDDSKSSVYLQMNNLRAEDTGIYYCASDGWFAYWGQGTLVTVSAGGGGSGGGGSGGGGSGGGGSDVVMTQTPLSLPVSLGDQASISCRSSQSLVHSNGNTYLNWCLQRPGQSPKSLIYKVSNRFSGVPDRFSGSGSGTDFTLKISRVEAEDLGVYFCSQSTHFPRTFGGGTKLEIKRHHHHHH
Measure name: OD450
Experimental result: 0.04
//
Binder: Comparative antibody 2 (Comp-2) scFv, 243LO326 (VH SEQ ID NO: 51 and VL SEQ ID NO: 52 of WO 2022/195028 A2), His-tagged (scFv) scFv: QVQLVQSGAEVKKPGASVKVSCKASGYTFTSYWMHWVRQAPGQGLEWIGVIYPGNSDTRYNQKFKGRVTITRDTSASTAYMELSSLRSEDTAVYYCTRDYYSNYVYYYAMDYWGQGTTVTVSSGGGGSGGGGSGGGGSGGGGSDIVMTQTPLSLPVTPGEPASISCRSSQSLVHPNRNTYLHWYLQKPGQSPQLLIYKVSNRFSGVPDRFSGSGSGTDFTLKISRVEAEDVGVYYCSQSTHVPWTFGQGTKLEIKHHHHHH
Measure name: OD450
Experimental result: 0.02
